# Procedure Details: Evaluation of hue on glossy paper (L*, a*, b*, C* of inkjet recorded image)
# Assay type: physicochemical
# Set-up: key: CIELAB b* chromaticity value
# Condition Context: Glossy paper manufactured by SEIKO-EPSON CORPORATION; ink with 6.0 parts compound
# Chromaticity b* listing for each entry below

| Compound | Chromaticity b* |
| --- | --- |
| Cn1c(=O)cc2c3c(c(Nc4cc(Nc5nc(O)nc(Nc6cc(S(=O)(=O)O)ccc6S(=O)(=O)O)n5)ccc4S(=O)(=O)O)ccc31)C(=O)c1ccccc1-2 [Comparative Example 1, reference compound] | −9.5 |
| O=C(O)c1cc(Nc2nc(O)nc(Nc3cc(Nc4cc(Oc5ccc(-c6ccc(S(=O)(=O)O)cc6)cc5S(=O)(=O)O)c5[nH]c(=O)c(C(=O)c6cccc(S(=O)(=O)O)c6)c6c5c4C(=O)c4ccccc4-6)c(S(=O)(=O)O)cc3S(=O)(=O)O)n2)cc(C(=O)O)c1 [Example 7 (No. 11)] | −2.6 |
| O=C(c1cccc(S(=O)(=O)O)c1)c1c2c3c(c(Nc4cc(Nc5nc(O)nc(Nc6ccccc6S(=O)(=O)O)n5)c(S(=O)(=O)O)cc4S(=O)(=O)O)cc(Oc4ccc(-c5ccc(S(=O)(=O)O)cc5)cc4S(=O)(=O)O)c3[nH]c1=O)C(=O)c1ccccc1-2 [Example 5 (No. 1)] | −1.7 |
| O=C(O)c1ccccc1Nc1nc(O)nc(Nc2cc(Nc3cc(Oc4ccc(-c5ccc(S(=O)(=O)O)cc5)cc4S(=O)(=O)O)c4[nH]c(=O)c(C(=O)c5cccc(S(=O)(=O)O)c5)c5c4c3C(=O)c3ccccc3-5)c(S(=O)(=O)O)cc2S(=O)(=O)O)n1 [Example 6 (No. 8)] | −2.2 |

The reported numbers originate from patent US20100221502A1.
